Molecular target: BLM642-1290 C1055N (Homo sapiens, UniProt P54132 642-1290, C1055N)
Sequence (P54132 642-1290 C1055N): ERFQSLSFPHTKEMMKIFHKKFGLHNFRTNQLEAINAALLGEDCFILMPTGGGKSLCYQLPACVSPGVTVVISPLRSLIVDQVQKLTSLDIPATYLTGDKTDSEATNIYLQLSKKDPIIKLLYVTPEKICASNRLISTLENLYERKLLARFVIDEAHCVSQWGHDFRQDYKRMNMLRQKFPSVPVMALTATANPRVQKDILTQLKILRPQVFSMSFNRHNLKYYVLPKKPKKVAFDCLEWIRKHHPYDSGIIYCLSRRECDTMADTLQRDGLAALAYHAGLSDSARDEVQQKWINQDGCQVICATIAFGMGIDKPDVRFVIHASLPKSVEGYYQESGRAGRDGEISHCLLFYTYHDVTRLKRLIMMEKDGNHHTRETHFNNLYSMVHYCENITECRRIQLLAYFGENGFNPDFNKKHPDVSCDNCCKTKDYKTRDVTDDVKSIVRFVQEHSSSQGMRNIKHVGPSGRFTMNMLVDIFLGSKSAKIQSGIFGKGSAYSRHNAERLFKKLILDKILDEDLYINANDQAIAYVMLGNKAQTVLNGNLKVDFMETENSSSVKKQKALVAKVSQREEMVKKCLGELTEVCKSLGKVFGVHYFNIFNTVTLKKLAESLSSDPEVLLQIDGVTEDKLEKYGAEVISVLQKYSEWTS
Assay: fluorescence anisotropy
Result Type: pKd
Hey, just a heads up that pKd is the negative log base 10 of the concentration in molar.

Query: Complete the entry with pKd for A/B partial duplex (23mer duplex with ss tails), fluorescent (dsDNA) DNA 1: GCACTGGCCGTCGTTTTACGGTCGTGACTGGGAAAACCCTGGCG DNA 2: TTTTTTTTTTTTTTTTTTTTTTAGCCGTAAAACGACGGCCAGTGC
Reply: 7.25
